EXPERIMENTAL SYSTEM: T1, Dimeric human CD48-mFc (human)
T1 chain: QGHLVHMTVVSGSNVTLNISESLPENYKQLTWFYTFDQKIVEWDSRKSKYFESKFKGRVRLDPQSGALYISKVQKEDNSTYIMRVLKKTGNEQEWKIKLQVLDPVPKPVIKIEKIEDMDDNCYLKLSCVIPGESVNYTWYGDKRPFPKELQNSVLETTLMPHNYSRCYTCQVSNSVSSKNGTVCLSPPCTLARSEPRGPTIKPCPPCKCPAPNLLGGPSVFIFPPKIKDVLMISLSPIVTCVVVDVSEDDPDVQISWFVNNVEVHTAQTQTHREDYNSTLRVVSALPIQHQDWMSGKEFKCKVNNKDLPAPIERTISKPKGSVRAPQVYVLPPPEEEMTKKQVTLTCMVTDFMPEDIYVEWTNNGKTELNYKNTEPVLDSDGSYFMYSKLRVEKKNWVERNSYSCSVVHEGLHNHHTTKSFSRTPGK
EXPERIMENTAL DETAILS: SPR (Biacore T100), 25 C, antibody captured by anti-Fc, dimeric CD48-mFc in solution
PARAMETER MEASURED: pKd
Convention used: pKd is expressed as -log10 of the molar concentration.

Record excerpt, results attached:
H2M1712N (antibody, mouse IgG2, V domains shown, Human variable domains, mouse IgG2 Fc (prefix H2M)) VH: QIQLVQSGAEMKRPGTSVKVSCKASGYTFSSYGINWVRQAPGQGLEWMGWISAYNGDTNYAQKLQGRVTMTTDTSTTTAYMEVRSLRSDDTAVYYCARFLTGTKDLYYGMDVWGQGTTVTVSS VL: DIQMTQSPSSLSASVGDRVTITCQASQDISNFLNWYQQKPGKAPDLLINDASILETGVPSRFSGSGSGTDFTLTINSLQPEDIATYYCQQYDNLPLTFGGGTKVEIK: 9.54
H2M1709N (antibody, mouse IgG2, V domains shown, Human variable domains, mouse IgG2 Fc (prefix H2M)) VH: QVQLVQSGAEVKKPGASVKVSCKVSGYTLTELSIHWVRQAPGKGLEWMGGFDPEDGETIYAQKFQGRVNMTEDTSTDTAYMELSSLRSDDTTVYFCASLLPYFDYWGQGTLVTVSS VL: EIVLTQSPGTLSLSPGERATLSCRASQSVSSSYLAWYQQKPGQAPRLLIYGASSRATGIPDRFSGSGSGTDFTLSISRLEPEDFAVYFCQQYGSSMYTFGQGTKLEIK: 9.51
H2M1763N (antibody, mouse IgG2, V domains shown, Human variable domains, mouse IgG2 Fc (prefix H2M)) VH: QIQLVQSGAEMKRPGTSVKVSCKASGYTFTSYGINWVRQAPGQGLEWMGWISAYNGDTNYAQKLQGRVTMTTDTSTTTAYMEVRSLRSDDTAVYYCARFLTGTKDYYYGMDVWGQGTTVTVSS VL: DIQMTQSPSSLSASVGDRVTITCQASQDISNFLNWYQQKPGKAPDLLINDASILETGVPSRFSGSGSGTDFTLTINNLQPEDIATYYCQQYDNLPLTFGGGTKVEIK: 9.59

QUERY: What value of pKd has been recorded for this entry: H4H1771P (antibody, human IgG4, V domains shown, Human IgG4 Fc (prefix H4H)) VH: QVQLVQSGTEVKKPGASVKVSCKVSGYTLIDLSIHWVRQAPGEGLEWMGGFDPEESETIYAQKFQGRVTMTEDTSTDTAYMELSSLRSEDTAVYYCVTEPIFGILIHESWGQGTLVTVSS VL: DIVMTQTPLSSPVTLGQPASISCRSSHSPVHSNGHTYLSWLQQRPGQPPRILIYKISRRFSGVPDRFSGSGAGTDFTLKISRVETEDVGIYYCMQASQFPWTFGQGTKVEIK
RESULT: 11.13

QUERY: Data request, read-out pKd, for H2M1707N (antibody, mouse IgG2, V domains shown) VH: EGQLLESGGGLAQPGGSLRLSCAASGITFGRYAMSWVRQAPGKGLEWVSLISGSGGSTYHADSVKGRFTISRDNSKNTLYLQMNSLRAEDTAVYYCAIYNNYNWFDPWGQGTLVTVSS VL: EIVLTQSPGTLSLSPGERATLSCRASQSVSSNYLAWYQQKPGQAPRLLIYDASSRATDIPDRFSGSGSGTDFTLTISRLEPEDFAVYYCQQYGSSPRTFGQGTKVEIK
RESULT: 10.03

Numbers sourced from patent US20130230533A1.
